# System under test: T1, DltA-∆P-loop mutant, C-terminal His6 tag (Lactiplantibacillus plantarum, UniProt Q88VM6 1-508, missing the loop region comprised between T152 and K160)
# T1 sequence: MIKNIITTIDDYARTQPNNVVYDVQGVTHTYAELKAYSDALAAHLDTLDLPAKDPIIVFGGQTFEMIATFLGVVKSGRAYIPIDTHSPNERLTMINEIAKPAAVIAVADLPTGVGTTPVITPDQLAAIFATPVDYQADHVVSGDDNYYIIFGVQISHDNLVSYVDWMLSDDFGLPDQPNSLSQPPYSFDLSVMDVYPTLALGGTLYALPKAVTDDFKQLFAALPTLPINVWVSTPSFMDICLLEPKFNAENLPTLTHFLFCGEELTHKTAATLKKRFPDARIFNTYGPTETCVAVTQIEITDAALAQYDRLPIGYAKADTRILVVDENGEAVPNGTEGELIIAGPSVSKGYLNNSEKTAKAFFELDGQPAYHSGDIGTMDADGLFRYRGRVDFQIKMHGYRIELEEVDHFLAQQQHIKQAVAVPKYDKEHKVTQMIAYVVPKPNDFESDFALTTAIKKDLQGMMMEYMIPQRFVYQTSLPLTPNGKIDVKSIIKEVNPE
# Test details: MST
Endpoint name: pKd
In simple prose, pKd is minus the logarithm base ten of a concentration in moles per litre.

Query :: Look up and report measured pKd for this entry: holo-DltC1 (DltC1 fully modified by phosphopantetheine), C-terminal His6 tag (natural protein, Lactiplantibacillus plantarum, UniProt Q88VM8 1-80, looked up, phosphopantetheine (Ppant) covalently attached to Ser38, confirmed by mass spectrometry, DltC1 (nc8_1734) of Lactiplantibacillus plantarum, wild type, co-expressed with wild type AcpS from pRSF-Duet1; also called Ppant-DltC1; Ppant-modified DltC; source: E. coli BL21 (DE3), co-expressed with LpAcpS from pRSF-Duet1, purified (Ni-NTA, SEC); 15N-labelled in M9 minimal media for NMR) MTMDDTKATVLSILADLTGEDVSSNMDVNLFDEGILDSMGSVQLLLELQNQLGIEVPVSEFQRSEWDTPAKIVAKVENLQ
Result :: 6.74
